assay: In vivo biodistribution and clearance in PC-3 tumor-bearing mice; conditions: male, NMRI-Foxn1 nu/nu, mouse, blood, iv, total radioactivity; 48 h p.i., i.v.; read-out: % uptake blood
measured property: tissue uptake at 48 h (%ID/g)
Number in %ID/g, nothing else.

Exam item: State its tissue uptake at 48 h for this molecule: CC(C)CC(CC(C)C)NC(=O)[C@H](Cc1cnc[nH]1)NC(=O)CNC(=O)[C@@H](NC(=O)[C@H](C)NC(=O)[C@H](Cc1c[nH]c2ccccc12)NC(=O)[C@H](CCC(N)=O)NC(=O)[C@@H](Cc1ccccc1)NC(=O)COCC(=O)Nc1ccc(CNC(=O)CN2CCN(CC(=O)O)CCN(CC(=O)O)CCN(CC(=O)O)CC2)cc1)C(C)C [[^177Lu]Lu-NeoB, metal not drawn]
Marked response: 0.01

---

assay: In vivo biodistribution and clearance in PC-3 tumor-bearing mice; details: male, NMRI-Foxn1 nu/nu, mouse, muscle, iv, total radioactivity; 1 h p.i., i.v.; read-out: % uptake muscle
measured property: tissue uptake at 1 h (%ID/g)
Report only the number, with the unit %ID/g understood.

CC(C)C[C@H](NC(=O)C[C@H](O)[C@H](CC(C)C)NC(=O)[C@H](Cc1c[nH]cn1)NC(=O)CNC(=O)[C@@H](NC(=O)[C@H](C)NC(=O)[C@H](Cc1c[nH]c2ccccc12)NC(=O)[C@H](CCC(N)=O)NC(=O)[C@@H](Cc1ccccc1)NC(=O)CN1CCC(NC(=O)CN2CCN(CC(=O)O)CCN(CC(=O)O)CCN(CC(=O)O)CC2)CC1)C(C)C)C(N)=O [[^177Lu]Lu-RM2, metal not drawn] :: 0.06

Turning now to a further compound:
Exam item: Please give the documented tissue uptake at 1 h of CC(C)CC(CC(C)C)NC(=O)[C@H](Cc1cnc[nH]1)NC(=O)CNC(=O)[C@@H](NC(=O)[C@H](C)NC(=O)[C@H](Cc1c[nH]c2ccccc12)NC(=O)[C@H](CCC(N)=O)NC(=O)[C@@H](Cc1ccccc1)NC(=O)COCC(=O)Nc1ccc(CNC(=O)CN2CCN(CC(=O)O)CCN(CC(=O)O)CCN(CC(=O)O)CC2)cc1)C(C)C [[^177Lu]Lu-NeoB, metal not drawn]
Marked response: 0.13

---

Test: In vivo biodistribution and clearance in PC-3 tumor-bearing mice
Details: male, NMRI-Foxn1 nu/nu, mouse, prostate, iv, total radioactivity; 48 h p.i., i.v.; read-out: % uptake prostate
Protocol: All animal experiments were approved by the Animal Welfare Committee of the Erasmus MC, and all experiments were conducted in accordance to institutional guidelines. At 1, 4, 24, 48, and 72 h post-injection (p.i.), animals were sedated using 2.5% isoflurane in oxygen, and blood was collected via the orbital vein, after which the animals were euthanized using cervical dislocation. […] The collected tumor and organs were weighed, and the radioactivity was measured in the gamma counter. […]
Parameter tissue uptake at 48 h: see the listing below.
Report the figure in %ID/g without appending any unit label.

CC(C)CC(CC(C)C)NC(=O)[C@H](Cc1cnc[nH]1)NC(=O)CNC(=O)[C@@H](NC(=O)[C@H](C)NC(=O)[C@H](Cc1c[nH]c2ccccc12)NC(=O)[C@H](CCC(N)=O)NC(=O)[C@@H](Cc1ccccc1)NC(=O)COCC(=O)Nc1ccc(CNC(=O)CN2CCN(CC(=O)O)CCN(CC(=O)O)CCN(CC(=O)O)CC2)cc1)C(C)C [[^177Lu]Lu-NeoB, metal not drawn] :: 0.01

Next up:
Exam item: Give a short answer stating reported tissue uptake at 48 h for CC(C)C[C@H](NC(=O)C[C@H](O)[C@H](CC(C)C)NC(=O)[C@H](Cc1c[nH]cn1)NC(=O)CNC(=O)[C@@H](NC(=O)[C@H](C)NC(=O)[C@H](Cc1c[nH]c2ccccc12)NC(=O)[C@H](CCC(N)=O)NC(=O)[C@@H](Cc1ccccc1)NC(=O)CN1CCC(NC(=O)CN2CCN(CC(=O)O)CCN(CC(=O)O)CCN(CC(=O)O)CC2)CC1)C(C)C)C(N)=O [[^177Lu]Lu-RM2, metal not drawn] .
Marked response: 0.02

Data origin: paper PMC10611828
